# SUBJECT OF TEST: human ACC2 (Homo sapiens, UniProt O00763)
# Sequence (O00763 whole entry): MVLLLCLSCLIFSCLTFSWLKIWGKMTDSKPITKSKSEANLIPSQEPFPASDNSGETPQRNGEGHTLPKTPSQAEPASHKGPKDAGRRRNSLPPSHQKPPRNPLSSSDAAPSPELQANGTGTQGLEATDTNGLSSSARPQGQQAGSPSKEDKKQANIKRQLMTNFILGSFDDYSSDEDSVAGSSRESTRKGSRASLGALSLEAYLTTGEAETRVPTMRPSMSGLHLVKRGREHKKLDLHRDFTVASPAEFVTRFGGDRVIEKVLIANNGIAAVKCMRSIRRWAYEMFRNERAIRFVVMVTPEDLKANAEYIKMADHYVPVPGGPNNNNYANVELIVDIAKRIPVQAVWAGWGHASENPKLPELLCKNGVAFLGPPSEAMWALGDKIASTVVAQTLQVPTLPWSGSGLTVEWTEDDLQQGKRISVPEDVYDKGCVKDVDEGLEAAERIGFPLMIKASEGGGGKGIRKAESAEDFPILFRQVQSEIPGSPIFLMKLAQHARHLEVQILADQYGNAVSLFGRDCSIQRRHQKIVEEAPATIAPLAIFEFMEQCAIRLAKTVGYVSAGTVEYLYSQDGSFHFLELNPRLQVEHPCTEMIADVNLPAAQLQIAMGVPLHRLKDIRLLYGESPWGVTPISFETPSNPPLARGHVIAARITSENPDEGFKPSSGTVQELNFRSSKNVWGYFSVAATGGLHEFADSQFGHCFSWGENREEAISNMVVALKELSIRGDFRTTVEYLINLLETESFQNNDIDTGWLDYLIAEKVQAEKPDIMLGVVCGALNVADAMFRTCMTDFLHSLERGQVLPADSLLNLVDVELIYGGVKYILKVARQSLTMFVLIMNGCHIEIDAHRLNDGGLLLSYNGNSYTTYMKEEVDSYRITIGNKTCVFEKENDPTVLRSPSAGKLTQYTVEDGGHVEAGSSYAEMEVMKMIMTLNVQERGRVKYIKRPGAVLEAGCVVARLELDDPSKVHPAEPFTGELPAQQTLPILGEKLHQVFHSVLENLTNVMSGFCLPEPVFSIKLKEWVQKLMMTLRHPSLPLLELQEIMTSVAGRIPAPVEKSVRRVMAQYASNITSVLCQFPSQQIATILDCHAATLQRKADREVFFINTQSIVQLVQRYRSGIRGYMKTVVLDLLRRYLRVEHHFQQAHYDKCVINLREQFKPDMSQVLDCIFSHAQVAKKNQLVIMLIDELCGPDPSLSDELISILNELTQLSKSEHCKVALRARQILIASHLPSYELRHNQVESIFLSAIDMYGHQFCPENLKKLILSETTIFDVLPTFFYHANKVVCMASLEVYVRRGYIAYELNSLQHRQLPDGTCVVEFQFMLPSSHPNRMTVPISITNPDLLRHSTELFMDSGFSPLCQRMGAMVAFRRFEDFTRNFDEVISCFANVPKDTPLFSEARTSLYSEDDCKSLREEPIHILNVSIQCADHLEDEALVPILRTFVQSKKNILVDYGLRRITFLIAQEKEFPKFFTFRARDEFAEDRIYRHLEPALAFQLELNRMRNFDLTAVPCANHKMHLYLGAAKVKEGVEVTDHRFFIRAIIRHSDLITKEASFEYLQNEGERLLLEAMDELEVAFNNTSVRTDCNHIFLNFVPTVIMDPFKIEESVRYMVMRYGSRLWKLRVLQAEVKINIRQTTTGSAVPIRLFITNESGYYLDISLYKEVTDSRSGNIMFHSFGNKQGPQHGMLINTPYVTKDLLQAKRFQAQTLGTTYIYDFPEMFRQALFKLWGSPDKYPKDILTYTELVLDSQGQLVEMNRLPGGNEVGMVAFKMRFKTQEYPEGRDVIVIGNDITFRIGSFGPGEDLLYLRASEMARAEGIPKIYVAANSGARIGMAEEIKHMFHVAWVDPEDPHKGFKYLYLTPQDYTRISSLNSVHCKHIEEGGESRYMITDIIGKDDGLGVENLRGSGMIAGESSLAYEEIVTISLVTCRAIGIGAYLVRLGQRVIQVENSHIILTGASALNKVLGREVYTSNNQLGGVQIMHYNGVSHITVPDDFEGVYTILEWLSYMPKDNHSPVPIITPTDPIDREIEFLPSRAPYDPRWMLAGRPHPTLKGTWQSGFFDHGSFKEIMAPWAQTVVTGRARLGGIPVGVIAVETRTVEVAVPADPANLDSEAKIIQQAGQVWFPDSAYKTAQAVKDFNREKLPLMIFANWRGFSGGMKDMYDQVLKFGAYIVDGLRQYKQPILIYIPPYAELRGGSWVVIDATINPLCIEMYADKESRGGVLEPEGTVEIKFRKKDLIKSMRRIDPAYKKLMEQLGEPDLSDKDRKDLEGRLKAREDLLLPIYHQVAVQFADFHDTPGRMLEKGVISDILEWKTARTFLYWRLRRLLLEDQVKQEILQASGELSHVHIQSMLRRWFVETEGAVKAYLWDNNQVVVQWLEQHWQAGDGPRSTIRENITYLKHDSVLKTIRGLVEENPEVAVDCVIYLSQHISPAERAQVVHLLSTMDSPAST
# MEASUREMENT NOTES: Acetyl CoA carboxylase (ACC) activity inhibition test, human ACC2
# Assay type: biochemical
# EXPERIMENTAL PARAMETERS: 1 μmol/liter compound; read-out: Inhibition (%) by 1 μmol/liter Chemical, human ACC2
OBSERVABLE: inhibition at 1 µM (%)
# number only, unit % dropped from output

Some entries whose results are on file:
| GIVEN SMILES | READOUT UNITS | NUMERIC VALUE |
| --- | --- | --- |
| CCOc1cc(C(=O)N2CCC3(CC2)CC(=O)c2cc(-c4ccc(C(N)=O)cn4)ccc2O3)cc(OCC)c1-c1ccc(C(=O)O)cc1 | % | 99 |
| CCOc1cc(C(=O)N2CCC3(CC2)CC(=O)c2cc(-c4cnn(C)c4)ccc2O3)cc(OCC)c1-c1cncc(C(=O)O)c1 | % | 100 |

Continue with the next compound.
Request: What value of inhibition at 1 µM on human ACC2 (Homo sapiens, UniProt O00763) does `CCOc1cc(C(=O)N2CCC3(CC2)CC(=O)c2cc(-c4cnn(C)c4)ccc2O3)cc(OCC)c1-c1ccc(C(=O)O)cc1` have?
Result: 100
